Tested on: δ opioid receptors (Mus musculus)
Construct: Bioassays Using Isolated Organ Preparations; from tissue; host or cells: isolated mouse vas deferens
Sequence (P32300 whole entry): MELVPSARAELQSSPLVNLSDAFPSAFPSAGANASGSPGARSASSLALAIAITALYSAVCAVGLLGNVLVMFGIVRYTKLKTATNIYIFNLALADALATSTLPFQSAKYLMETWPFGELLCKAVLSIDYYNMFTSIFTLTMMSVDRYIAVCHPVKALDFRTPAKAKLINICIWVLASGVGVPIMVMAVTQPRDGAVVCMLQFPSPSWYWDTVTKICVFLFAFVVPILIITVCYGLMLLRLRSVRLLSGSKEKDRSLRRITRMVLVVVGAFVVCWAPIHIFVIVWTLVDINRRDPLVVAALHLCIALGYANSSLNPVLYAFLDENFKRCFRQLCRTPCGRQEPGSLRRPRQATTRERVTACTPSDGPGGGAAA
Measurement protocol: MVD assay: inhibition of electrically evoked contractions of the mouse vas deferens (δ antagonist Ke)
Assay type: cell-based
Condition parameters: δ agonist [Leu5]enkephalin, means of 3-8 determinations ± SEM
Positions of bridges follow the written chain, without caps; N, C: chain ends. Non-standard residues stand in square brackets, D forms with d. Residues, ends and D or L forms follow the SMILES beside them. 2Nal = N[C@@H](Cc1ccc2ccccc2c1)C(=O)O; Dmt = Cc1cc(O)cc(C)c1C[C@H](N)C(=O)O; dOrn = NCCC[C@@H](N)C(=O)O
Recorded metric: Ke in the MVD assay, antagonist potency against [Leu5]enkephalin

Compound	Numeric value
N[C@@H](Cc1ccc(O)cc1)C(=O)N[C@@H]1CCCCNC(=O)CNC(=O)[C@H]2CCCN2C(=O)[C@H](Cc2ccc3ccccc3c2)NC1=O [H-Tyr-c[-D-Lys-2-Nal-D-Pro-Gly-], reference compound] (HELM PEPTIDE1{Y.[dK].[O=C([C@H](Cc1ccc2ccccc2c1)N[*:1])[*:2]].[dP].G}$PEPTIDE1,PEPTIDE1,2:R3-5:R2$$$V2.0)	603
N[C@@H](Cc1ccc(O)cc1)C(=O)N[C@@H]1CCCNC(=O)CNC(=O)[C@H]2CCCN2C(=O)[C@H](Cc2ccc3ccccc3c2)NC1=O [H-Tyr-c[-D-Orn-2-Nal-D-Pro-Gly-], reference compound] (HELM PEPTIDE1{Y.[O=C([C@@H](CCCN[*:3])N[*:1])[*:2]].[O=C([C@H](Cc1ccc2ccccc2c1)N[*:1])[*:2]].[dP].G}$PEPTIDE1,PEPTIDE1,2:R3-5:R2$$$V2.0)	268
CN[C@@H](Cc1ccc(O)cc1)C(=O)N[C@@H]1CCCNC(=O)CNC(=O)[C@H]2CCCN2C(=O)[C@H](Cc2ccc3ccccc3c2)NC1=O [Example 1, Tyr(NMe)-c[-D-Orn-2-Nal-D-Pro-Gly-]] (HELM PEPTIDE1{[meY].[O=C([C@@H](CCCN[*:3])N[*:1])[*:2]].[O=C([C@H](Cc1ccc2ccccc2c1)N[*:1])[*:2]].[dP].G}$PEPTIDE1,PEPTIDE1,2:R3-5:R2$$$V2.0)	30.8
Cc1cc(O)cc(C)c1C[C@H](N)C(=O)N[C@@H]1CCCNC(=O)CNC(=O)[C@H]2CCCN2C(=O)[C@H](Cc2ccc3ccccc3c2)NC1=O [Example 3, H-Dmt-c[-D-Orn-2-Nal-D-Pro-Gly-]] (H-[Dmt][dOrn][2Nal][dP]G; lactam 2-C)	3.74

====

Positions of bridges follow the written chain, without caps; N, C: chain ends. Non-standard residues stand in square brackets, D forms with d. Residues, ends and D or L forms follow the SMILES beside them. 2Nal = N[C@@H](Cc1ccc2ccccc2c1)C(=O)O; dOrn = NCCC[C@@H](N)C(=O)O; NMeAib = CNC(C)(C)C(=O)O
Form: system (μ opioid receptor (Rattus norvegicus, UniProt P33535)), quantity (Ki), values below.

Compound	Tested on	Output unit	Ki
CN1CC(=O)NCCC[C@@H](NC(=O)[C@@H](N)Cc2ccc(O)cc2)C(=O)N[C@@H](Cc2ccc3ccccc3c2)C(=O)N2CCC[C@@H]2C1=O [Example 2, H-Tyr-c[-D-Orn-2-Nal-D-Pro-Sar-]] (HELM PEPTIDE1{Y.[O=C([C@@H](CCCN[*:3])N[*:1])[*:2]].[O=C([C@H](Cc1ccc2ccccc2c1)N[*:1])[*:2]].[dP].[Sar]}$PEPTIDE1,PEPTIDE1,2:R3-5:R2$$$V2.0)	μ opioid receptor (Rattus norvegicus, UniProt P33535)	µM	0.0148
C[C@H]1NC(=O)[C@H]2CCCN2C(=O)[C@H](Cc2ccc3ccccc3c2)NC(=O)[C@H](NC(=O)[C@@H](N)Cc2ccc(O)cc2)CCCNC1=O [Example 5, H-Tyr-c[-D-Orn-2-Nal-D-Pro-D-Ala-]] (HELM PEPTIDE1{Y.[O=C([C@@H](CCCN[*:3])N[*:1])[*:2]].[O=C([C@H](Cc1ccc2ccccc2c1)N[*:1])[*:2]].[dP].[dA]}$PEPTIDE1,PEPTIDE1,2:R3-5:R2$$$V2.0)	μ opioid receptor (Rattus norvegicus, UniProt P33535)	µM	0.072
CN1C(=O)[C@H]2CCCN2C(=O)[C@H](Cc2ccc3ccccc3c2)NC(=O)[C@H](NC(=O)[C@@H](N)Cc2ccc(O)cc2)CCCNC(=O)C1(C)C [Example 7, H-Tyr-c[-D-Orn-2-Nal-D-Pro-MeAib-]] (H-Y[dOrn][2Nal][dP][NMeAib]; lactam 2-C)	μ opioid receptor (Rattus norvegicus, UniProt P33535)	µM	0.0292
N[C@@H](Cc1ccc(O)cc1)C(=O)N[C@@H]1CCCCNC(=O)CNC(=O)[C@H]2CCCN2C(=O)[C@H](Cc2ccc3ccccc3c2)NC1=O [H-Tyr-c[-D-Lys-2-Nal-D-Pro-Gly-], reference compound] (HELM PEPTIDE1{Y.[dK].[O=C([C@H](Cc1ccc2ccccc2c1)N[*:1])[*:2]].[dP].G}$PEPTIDE1,PEPTIDE1,2:R3-5:R2$$$V2.0)	μ opioid receptor (Rattus norvegicus, UniProt P33535)	µM	0.0171
